# measurement-target: UniProt Q6ZMR5
# Sequence (Q6ZMR5 1-418): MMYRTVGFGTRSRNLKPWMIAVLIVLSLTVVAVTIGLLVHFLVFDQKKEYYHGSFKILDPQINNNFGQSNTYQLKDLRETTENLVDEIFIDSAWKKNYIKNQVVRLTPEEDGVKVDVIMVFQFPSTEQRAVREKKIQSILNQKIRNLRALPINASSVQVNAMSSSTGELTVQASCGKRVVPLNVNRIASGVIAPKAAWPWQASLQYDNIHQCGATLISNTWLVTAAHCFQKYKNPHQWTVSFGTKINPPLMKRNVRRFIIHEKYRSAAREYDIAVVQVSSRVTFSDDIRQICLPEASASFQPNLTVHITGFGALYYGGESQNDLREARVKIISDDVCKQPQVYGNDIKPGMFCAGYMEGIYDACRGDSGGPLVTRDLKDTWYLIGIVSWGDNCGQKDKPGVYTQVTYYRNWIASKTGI
observable: Ki
Include the unit right after the number.

Short answer for CCOC(=O)N1CCN(C(=O)[C@H](Cc2cccc(C(=N)N)c2)NS(=O)(=O)c2c(C(C)C)cc(C(C)C)cc2C(C)C)CC1 [WX-UK1] : Ki was 390 nM
